System: MS2 coat protein
Experiment: apparent KD of MS2 coat protein; designed switch direction (-1 OFF switch, 1 ON switch): 1; higher = weaker reporter binding
Conditions: Eterna round: R95; input ligand: microRNA oligo, concentration not stated
readoutKind: apparent KD of MS2 coat protein

Look over these answered cases.
monomerSequence	obsValue
GGCUAUCGCGUACGAUAGCUGAAGCAUGUACAUGAGGAUCACCCAUGUCAUGUACAAGCUUUUUGCUCGUCUUAUUG [JL-shm-2.32 JL mod] (puzzle: Sensor for hsa-mir-208a)	13.9 nM
AUAAAACAUGAGGAUCACCCAUGUCAAAAGACAUGAGGAUAUGUGCAAAUAAAAUAAGAAACAGAAGGCAUGAAAA [salish99_ss1_r3_103] (puzzle: Same State 1)	105 nM
GGAGCCAGCACCGAGGAUAUUCAUAUUAAAACAUGAGGAUCACCCAUGUAGGCCAGAAGGCCUUGGGAGAAGGCGGAUUGGCUCG [Xeonanis - 10] (puzzle: Same State 2)	327 nM
UAGAGAGGAAGCGAGGAUAUCGUGGGAGGGACAUGAGGAUCACCCAUGUAUGAUGUUGAGAGGAACGAGAAGGCGCAGGAAAGUA [JR_SS2_Sub077] (puzzle: Same State 2)	137 nM

Item: UAGUACAAGCUUUUUGCCCGUCUUAUUUAACAUGAGGAUCACCCAUGUAAGGUGAAAGUUAGAGAGUGGAGGUUGAA [JR_SHM208A_Sub049] (puzzle: Sensor for hsa-mir-208a) | System: MS2 coat protein | apparent KD of MS2 coat protein: 227 nM

Item: GGUUUAGUCGAGUACCGUUCCACUCGAAAACAUGAGGAUCACCCAUGUUUGGGACAAGCUUUGCUCCUCGUCUUUCC [Inardiza] (puzzle: Sensor for hsa-mir-208a) | System: MS2 coat protein | apparent KD of MS2 coat protein: 64.8 nM

###

Test system: MS2 coat protein
Test: apparent KD of MS2 coat protein; higher = weaker reporter binding
Conditions: Eterna round: R107; input ligand: theophylline 2 mM
apparent KD of MS2 coat protein overview
Field: numeric (nM). Do not append units.

monomerSequence	unitSpec	obsValue
UCGCCAUUGACGGCCGCCACUCAAUGGUCUUCUCUGAACAUAAUUAACAUGAGGAUCACCCAUGUGAGGACCGGGUCGGUUAGAC [theeternabot_exclusion_MS2_Trp_B_24]	nM	20.4
CUCAUCCACGCGGCCGCCACUAUAUUGUGGUGCGAAUGUGUCGUAAUACAUGAGGAUCACCCAUGUAGGACCGGGCGUGGAUGAG [#09 Exclusion Tryptophan B]	nM	13.5
CGAUUUAAGACGGCCGCCACUAUUAAGUAACAAAAUAAACAUGAGGAUCACCCAUGUACAUGGGAUAGGACCGGGUCCAAUAUCG [A2]	nM	84.4
UGUAUGUGAUUUGAUACCAGACCAGCUGGUGGUACAUGAGCAUCAGCCAUGUAGGUUUGGGUCCCUUGGCAGCAAAUCGCAUACU [SS Theo B #24 Ms2]	nM	19.3
AGAAUAACAUGAGCAAAGCUCAUGUGCGAAGGAGCGGCGGAAACGCCAGGUAGGUCGCGCACAUGAGCAUCAGCCAUGUGUACCA [Omei Arginine B SS A v5]	nM	65.8

Item: GCUACAUGAGGAUCACCCAUGUAUGCGAGCCGAGGACCGGUACGGCCGCCACUCGCUUAACAUGAGGAUCACCCAUGUUUCUCGG [SSTA DOUBLE!!! :-D #16] | System: MS2 coat protein | apparent KD of MS2 coat protein: 254

Item: GGGUCCGUCGGAAGGAGCGACAUGAGGAUCACCCAUGUCUCCCGUUAUGGGAGUUCUUUAGGUCAGGUAGGUCGCCGGCGGGUCC [#1 Exclusion - Arginine B Attempt #13 (Inspired by Omei)] | System: MS2 coat protein | apparent KD of MS2 coat protein: 164

###

Tested on: MS2 coat protein
Test: apparent KD of MS2 coat protein, switch OFF state (with FMN for OFF switches, without FMN for ON switches); designed switch direction (-1 OFF switch, 1 ON switch): -1; higher = weaker reporter binding
Conditions: FMN input: 0 or 200 uM; Eterna round: R93 (includes R88 designs)
Everything with apparent KD of MS2 coat protein lower than 60 nM is FALSE; everything else, including exactly 60 nM, is TRUE.

Consider the worked cases shown below.
> print(dat)
                            monomersequence  labelclass
1  GGUUUGGUAGGAUAUACAUGAGGAUCACCCAUGUGAGAGAAAAAAGUGAGAAAGAAAAGUAGAAGGACCGGACG [salish99-ex3-123]        TRUE
2  GAAAAGUGAGGAUAUUCGGAUAGGAAAACGAAAACCUAUCCGAAGAAGGCACAUGAGGAUCACCCAUGUGGAAG [Mat - Exaclusion 4 - Eli mod - D46]       FALSE
3  CUCAAGUAAGGAUAUUCAAGAAAAGAAGAGAAAGAAAAGAAGAAGAAGGUACAUGAGGAUCACCCAUGUAAGAA [EteRNA is fun!]       FALSE

I'd appreciate it if you could say whether AAAAAAAGAGGAUAUACAUGAAAAAUAAAAAUGUAAAAAAAACAUGAGGAUCACCCAUGUAGAAGGCUUAAAAA [Ecx-I 62% 1] has apparent KD of MS2 coat protein at least equal to 60 nM.
FALSE

###

Tested on: K4 kissing-loop RNA reporter
Assay: apparent KD of K4 kissing-loop reporter; higher = weaker reporter binding
Details: Eterna round: R107; input ligand: arginine 13.2 mM
Everything with apparent KD of K4 kissing-loop reporter lower than 0.2 µM is Not fulfilled; everything else, including exactly 0.2 µM, is Fulfilled.

Consider the worked cases shown below.
monomerSequence	labelClass
GGAACGUUGCGGACUAUCGCAUAAAGUCACCGAGGACCGGUACGGCCGCCACUCGCCAGUGAUGUUGGCGUGUUUGCGCGCUGUA [Isteri]	Not fulfilled
AAAAUAAGCCAGUGAUGUUGGUACCCAGAUACCAGCGACGAAAGUCGCCCUUGGCAGCUGUGGACGUACAAAAUAAGUACGUCCU	Fulfilled
UCCUUAUCGCGGUCAUAAAGCCUAUAAAACAAGGAUAUCUCAUCAGAGAGAAGGUGUGAGUGAUGUUCAAAGGCCACCACGGGUU [theeternabot_sameState_KL_FMN_A_47]	Fulfilled

I'd appreciate it if you could say whether GGAGAGGUCUUGUUUGGAUGUGUUUAAUGGCGAGGACCGGUACGGCCGCCACUCGGGUGAUGUUAGUGAUGUUGAUGUUGUGAUG ['oo'mullin] has apparent KD of K4 kissing-loop reporter at least equal to 0.2 µM.
Not fulfilled

I'd appreciate it if you could say whether UUUGGUUUCUCGGCCGCCACUCGUUGUCUAUGGGCUUCAGGGAUAUAGUGAUGUUAUGUAUAGAAGAGGACCGGGAGAAGGUUUU [ExTryptoB.Dv] has apparent KD of K4 kissing-loop reporter at least equal to 0.2 µM.
Not fulfilled

###

apparent KD of K4 kissing-loop reporter overview
Test system: K4 kissing-loop RNA reporter;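 also: bound reporter read as fluorescence of individual clusters on recovered sequencing chips by microscopy, with normalized cluster intensities fitted with a binding model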
Experiment: apparent KD of K4 kissing-loop reporter; higher = weaker reporter binding
Conditions: Eterna round: R107; input ligand: tryptophan 2.4 mM
Field: numeric (nM). Do not append units.

Look over these answered cases.
> print(dat)
                            monomersequence  obsvalue
1  CUCGUGGGUUUGAGAGGGCUUGUGGGAAGUGAGGAUAUUUAGGGAGAAAGAAGGCACUAUAGAAUAUAGUGAUGUUAUAUAAGGG [SSFMNA.N]       212
2  AGGUCACAACUACAGUGAUGUUGUGGAGAGCAGGAUAUGCAGAAAUGCAGAAGGGCUCGCUCUCUAGUGACCGAUCAAAAGAUCA [Omei KL FMN A SS A v9]       532
3  AACCGAGGUAAUCCACAAUGAUUAGAAGAUACCAGAUAUAUAAAUAUCCCUUGGCAGCUUUGAAUGAGUGAUGUUCAUUUGUCAU [KL-SSTheo-A11]       104
4  GCCGUAGAUUGAAGGAGCGGCACCCACGGCUCUAACACCUAAGUGAUGUUUAGGUAGUGGUGCCAGGUAGGUCGCAAUCUACGGC       131

Item: UGUAUGUGAUUUGAUACCAGACCAGGUGGAGGAAUCUGAGUGAUGUUCAGGUAGGUUUGGGUCCCUUGGCAGCAAAUCGCAUACU [KL-SSTheoB18] | System: K4 kissing-loop RNA reporter | apparent KD of K4 kissing-loop reporter: 158

###

Test system: MS2 coat protein
Experiment: apparent KD of MS2 coat protein; designed switch direction (-1 OFF switch, 1 ON switch): -1; higher = weaker reporter binding
Conditions: Eterna round: R95; input ligand: microRNA oligo, concentration not stated
Everything with apparent KD of MS2 coat protein lower than 20 nM is Criterion not met; everything else, including exactly 20 nM, is Criterion met.

monomerSequence	labelClass
CCGCAAAUGGAGGAUAUCGUAUCGGAGACGAUACGAGAAGGCCAAACAUGAGGAUCACCCAUGUGUCCUAGCGG [Mat - Exclusion 6 - Eli Mod - D102] (puzzle: Exclusion 6)	Criterion not met

I'd appreciate it if you could say whether CUGUACAUAGGAUAUAGUUGUUUUUACAUGAGGAUCACCCAUGUUACUCCUCUCUCUCUUCUAGAAGGAUGUUUUU [JR_E5_Sub007] (puzzle: Exclusion 5) has apparent KD of MS2 coat protein at least equal to 20 nM.
Criterion met

I'd appreciate it if you could say whether ACCGAACAUGAGGAUCACCCAUGUGAGGAUAUCCCGAGAUUAAAUGCCGCAAGAAGGCGGAGAAGGCGCAUGGG [Ditiesre] (puzzle: Exclusion 1) has apparent KD of MS2 coat protein at least equal to 20 nM.
Criterion met
